The reported numbers originate from patent US20240116985A1.

Target: full-length beta-Catenin (Uniprot ID P35222) (Homo sapiens (Human)) (UniProt P35222)
Sequence (P35222 whole entry): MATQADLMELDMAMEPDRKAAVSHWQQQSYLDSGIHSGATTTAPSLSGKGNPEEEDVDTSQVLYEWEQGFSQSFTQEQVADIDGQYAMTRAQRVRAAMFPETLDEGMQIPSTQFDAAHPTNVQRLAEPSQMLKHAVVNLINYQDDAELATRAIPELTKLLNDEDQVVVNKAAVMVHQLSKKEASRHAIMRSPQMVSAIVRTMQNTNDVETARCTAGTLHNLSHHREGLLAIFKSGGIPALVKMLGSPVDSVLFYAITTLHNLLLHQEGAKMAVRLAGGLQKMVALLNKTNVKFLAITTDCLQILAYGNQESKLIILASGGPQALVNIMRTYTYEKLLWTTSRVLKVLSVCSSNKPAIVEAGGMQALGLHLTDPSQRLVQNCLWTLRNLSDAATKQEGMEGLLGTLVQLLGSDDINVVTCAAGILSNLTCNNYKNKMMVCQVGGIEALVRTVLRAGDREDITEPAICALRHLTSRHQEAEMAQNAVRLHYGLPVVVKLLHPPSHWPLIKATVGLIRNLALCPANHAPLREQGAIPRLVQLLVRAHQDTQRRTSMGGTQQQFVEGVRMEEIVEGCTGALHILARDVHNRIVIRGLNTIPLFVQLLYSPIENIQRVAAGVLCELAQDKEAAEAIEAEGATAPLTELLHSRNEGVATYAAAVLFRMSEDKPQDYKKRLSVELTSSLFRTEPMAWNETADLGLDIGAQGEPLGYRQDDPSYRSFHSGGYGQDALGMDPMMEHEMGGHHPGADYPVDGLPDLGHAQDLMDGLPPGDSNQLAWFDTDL
Assay: fluorescence polarization competition; 10 nM full-length beta-catenin + 10 nM 5FAM-TCF4(10-53) probe
Starred links: 1 amine or outer side, 2 acyl side, 3 side chain; linkers in the order of their positions; H or OH if unused. Positions of bridges follow the written chain, without caps; N, C: chain ends. Non-standard residues stand in square brackets, D forms with d. Primed or numbered codes have the meaning given here. PyrS2″ = (S)-3-amino-1-((pent-4-en-1-yloxy)carbonyl)pyrrolidine-3-carboxylic acid (stapling residue), C=CCCCOC(=O)N1CC[C@@](N[*:1])(C(=O)[*:2])C1; B5(4) = 2,2-bis(4-pentenyl)glycine = 2-amino-2-(pent-4-en-1-yl)hept-6-enoic acid (stitching residue), C=CCCCC(CCCC=C)(N[*:1])C(=O)[*:2]; B5(5) = 2,2-bis(4-pentenyl)glycine, 2-amino-2-(pent-4-en-1-yl)hept-6-enoic acid (stitching residue), C=CCCCC(CCCC=C)(N[*:1])C(=O)[*:2]; TfeGA = (S)-2-amino-3-((carboxymethyl)(2,2,2-trifluoroethyl)amino)propanoic acid, O=C([C@H](CN(CC(=O)[*:3])CC(F)(F)F)N[*:1])[*:2]; PyrS2 = (S)-3-amino-1-((pent-4-en-1-yloxy)carbonyl)pyrrolidine-3-carboxylic acid, C=CCCCOC(=O)N1CC[C@@](N[*:1])(C(=O)[*:2])C1; B5 = 2-amino-2-(pent-4-en-1-yl)hept-6-enoic acid, C=CCCCC(CCCC=C)(N[*:1])C(=O)[*:2]; Bta = N[C@@H](Cc1csc2ccccc12)C(=O)O; αAllylPro = C=CC[C@@]1(C(=O)O)CCCN1; tBuAla = CC(C)(C)C[C@H](N)C(=O)O; 3Thi = N[C@@H](Cc1ccsc1)C(=O)O; hSer = N[C@@H](CCO)C(=O)O
Listing of recorded EC50 by entry.
assay-endpoint: EC50 (µM)

• Ac-[αAllylPro]D[tBuAla][B5(5)]D[TfeGA]AAFN[PyrS2″][3Thi][Bta]L-NH2 (staple 1-4, 4-11; also: staple isomer composition, later-eluting HPLC peak) [I-947] = 1.05
• Ac-[αAllylPro]D[tBuAla][B5]D[TfeGA]AAF[hSer][PyrS2][3Thi][Bta]S-NH2 (staple 1-4, 4-11; also: later-eluting staple isomer composition) [I-959] = 0.881
• Ac-[αAllylPro]D[tBuAla][B5(4)]D[TfeGA]AAFN[PyrS2″][3Thi][Bta][hSer]-NH2 (staple 1-4, 4-11; also: later-eluting staple isomer composition) [I-951] = 1.47
• Ac-[αAllylPro]D[tBuAla][B5]D[TfeGA]AAFN[PyrS2][3Thi][Bta]Y-NH2 (staple 1-4, 4-11; also: later-eluting staple isomer composition) [I-953] = 1.46
• Ac-[αAllylPro]D[tBuAla][B5(5)]D[TfeGA]AAFN[PyrS2″][3Thi][Bta]L-NH2 (staple 1-4, 4-11; also: staple isomer composition, earlier-eluting HPLC peak) [I-946] = 0.798
